Biological target: T1, human LAG-3 ECD (antigen protein of the affinity test) (human, UniProt P18627 23-450)
T1 sequence: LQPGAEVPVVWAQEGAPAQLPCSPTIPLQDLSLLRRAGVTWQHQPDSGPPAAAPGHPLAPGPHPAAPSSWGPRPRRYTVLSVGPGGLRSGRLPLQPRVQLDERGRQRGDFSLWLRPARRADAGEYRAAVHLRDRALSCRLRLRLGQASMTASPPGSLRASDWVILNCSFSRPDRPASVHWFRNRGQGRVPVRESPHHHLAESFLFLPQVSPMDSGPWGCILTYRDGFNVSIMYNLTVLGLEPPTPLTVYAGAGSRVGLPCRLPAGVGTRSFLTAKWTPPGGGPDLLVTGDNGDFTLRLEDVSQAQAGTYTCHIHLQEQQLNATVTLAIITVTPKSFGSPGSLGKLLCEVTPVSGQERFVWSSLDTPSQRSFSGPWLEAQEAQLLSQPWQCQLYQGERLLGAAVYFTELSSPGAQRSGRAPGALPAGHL
Test: SPR, CM5 chip, antibody captured by anti-human Fc IgG, antigen in flow, 1:1 fit
Measured koff values are reported for all entries that follow.

BINDER: 405B8H3 mouse-human chimeric antibody (antibody, V domains shown, also called mAb103-405B8H3) VH: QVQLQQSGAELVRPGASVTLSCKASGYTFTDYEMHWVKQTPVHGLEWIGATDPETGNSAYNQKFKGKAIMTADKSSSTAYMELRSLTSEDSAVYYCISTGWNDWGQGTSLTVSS VL: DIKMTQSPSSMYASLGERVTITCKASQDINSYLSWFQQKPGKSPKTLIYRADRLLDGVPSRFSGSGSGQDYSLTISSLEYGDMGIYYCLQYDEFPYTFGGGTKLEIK
koff / s⁻¹: 0.000165
--
BINDER: 556F6B8-7 humanized antibody (antibody, V domains shown) VH: QVQLQESGPGLVKPSETLSLTCTVSGFSLIKYGVHWIRQPPGKGLEWIGVIWRGGITDYNAAFMSRVTISKDTSKSQVSLKLSSVTAADTAVYYCARWDGPLAMDYWGQGTTVTVSS VL: DIVLTQSPSFLSASVGDRVTITCKASQDVGTTVAWYQQKPGKAPKLLIYWASTRHTGVPSRFSGSGSGTEFTLTISSLQPEDFATYYCQQYSSYPYTFGQGTKLEIK
koff / s⁻¹: 0.000453
--
BINDER: 556F6B8-3 humanized antibody (antibody, V domains shown) VH: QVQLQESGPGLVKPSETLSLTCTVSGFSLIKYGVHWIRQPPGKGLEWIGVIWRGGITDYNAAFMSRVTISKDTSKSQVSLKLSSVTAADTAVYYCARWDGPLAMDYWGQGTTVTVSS VL: DIQLTQSPSFLSASVGDRVTITCKASQDVGTTVAWYQQKPGKAPKLLIYWASTRHTGVPSRFSGSGSGTEFTLTISSLQPEDFATYYCQQYSSYPYTFGQGTKLEIK
koff / s⁻¹: 0.000465
--
BINDER: 556F6B8 mouse-human chimeric antibody (antibody, V domains shown, also called mAb123-556F6B8; 556F8B8) VH: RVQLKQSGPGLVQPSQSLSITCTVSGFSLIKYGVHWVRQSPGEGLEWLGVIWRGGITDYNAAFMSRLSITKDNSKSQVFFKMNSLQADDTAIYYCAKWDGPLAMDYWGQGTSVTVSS VL: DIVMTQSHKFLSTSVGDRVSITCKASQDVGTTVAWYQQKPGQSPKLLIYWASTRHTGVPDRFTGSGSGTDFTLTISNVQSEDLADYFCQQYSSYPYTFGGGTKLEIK
koff / s⁻¹: 0.000455
--
BINDER: 405B8H3-1 humanized antibody (antibody, V domains shown) VH: QVQLVQSGAEVKKPGASVKVSCKASGYTFTDYEMHWVRQAPGQGLEWMGATDPETGNSAYNQKFKGRVTMTRDTSTSTVYMELSSLRSEDTAVYYCISTGWNDWGQGTTVTVSS VL: DIQMTQSPSSLSASVGDRVTITCKASQDINSYLSWFQQKPGKAPKSLIYRADRLLDGVPSRFSGSGSGTDFTLTISSLQPEDFATYYCLQYDEFPYTFGQGTKLEIK
koff / s⁻¹: 0.000254
